Sourced from patent US20240383904A1

Listed compounds paired with reported IC50
Molecular target: MAGL (Homo sapiens)
Sequence (Q99685 whole entry, species assumed): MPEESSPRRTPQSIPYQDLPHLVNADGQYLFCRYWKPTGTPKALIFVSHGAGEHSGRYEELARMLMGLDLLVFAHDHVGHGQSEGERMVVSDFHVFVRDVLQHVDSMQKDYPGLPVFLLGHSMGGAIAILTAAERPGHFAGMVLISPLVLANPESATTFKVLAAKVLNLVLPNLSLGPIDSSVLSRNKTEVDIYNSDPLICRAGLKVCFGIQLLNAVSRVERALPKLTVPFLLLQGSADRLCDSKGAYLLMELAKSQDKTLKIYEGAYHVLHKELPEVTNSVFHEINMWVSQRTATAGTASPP
Experiment: 2-AG assay: MAGL inhibitory activity by hydrolysis of 2-arachidonoylglycerol to arachidonic acid, followed by mass spectrometry
Assay type: biochemical
Details: 15 min preincubation, 30 min reaction at RT, 8 μM 2-arachidonoylglycerol
Expressed in nM, but write only the number.

Some compounds with recorded IC50:
CS(=O)(=O)c1ccc(C[C@H]2CCC3(C2)CN(C(=O)N2CC4(COCC(=O)N4)C2)C3)cc1 (single isomer, unassigned)
77.7
O=C1NC2(CO1)CN(C(=O)N1CC3(CC(C(=O)NC4(C(F)(F)F)CC4)C3)C1)C2
88.6
O=C1CCC2(CN(C(=O)N3CC4(CCN(Cc5cnc(C(F)(F)F)cn5)C4)C3)C2)N1
237

Entry O=C1COCC2(CN(C(=O)N3CC4(CCC(Cc5ccc(OC(F)F)nc5)CC4)C3)C2)N1 has what IC50?
13.1

Entry O=C1NC2(CO1)CN(C(=O)N1CC3(CCC(Oc4cc(Cl)ccc4Cl)CC3)C1)C2 has what IC50?
0.05

Entry CC1(NS(=O)(=O)N2CC3(CN(C(=O)N4CC5(COC(=O)N5)C4)C3)C2)CC1 has what IC50?
65.3

Entry O=C1NC2(CO1)CN(C(=O)N1CC3(CCN(Cc4ccc(C(F)(F)F)cn4)C3)C1)C2 has what IC50?
4.11

Entry O=C1CCC2(CN(C(=O)N3CC4(CCC(S(=O)(=O)c5ccc(C(F)(F)F)cc5)CC4)C3)C2)N1 has what IC50?
6.44

Entry O=C1CCC2(CN(C(=O)N3CC4(CN(Cc5snnc5C5CC5)C4)C3)C2)N1 has what IC50?
3330

Entry O=C1COCC2(CN(C(=O)N3CC4(CC(Cc5ncc(F)cc5Cl)C4)C3)C2)N1 has what IC50?
3

Entry Cn1ncc(CC2CC3(C2)CN(C(=O)N2CC4(CCC(=O)N4)C2)C3)c1C(F)(F)F has what IC50?
0.52

Entry O=C1NC2(CO1)CN(C(=O)N1CC3(CCN(Cc4cccc(S(=O)(=O)C(F)(F)F)c4)CC3)C1)C2 has what IC50?
0.76

Entry N#Cc1cc(CC2CC3(C2)CN(C(=O)N2CC4(CNC(=O)N4)C2)C3)ccc1C(F)(F)F has what IC50?
3.29

Entry O=C1NC2(CCO1)CN(C(=O)N1CC3(CCN(S(=O)(=O)c4ccc(C(F)(F)F)cc4F)CC3)C1)C2 has what IC50?
2120

Entry O=C1CCC2(CN(C(=O)N3CC4(CN(Cc5ccc(S(=O)(=O)C(F)(F)F)cc5F)C4)C3)C2)N1 has what IC50?
18.6

Entry O=C1NC2(CO1)CN(C(=O)N1CC3(CC(Cc4ccc(OC(F)(F)F)nc4)C3)C1)C2 has what IC50?
0.19

Entry O=C1CCC2(CN(C(=O)N3CC4(CCN(Cc5ccc(C(F)(F)F)nn5)C4)C3)C2)N1 has what IC50?
1040

Entry O=C1NC2(CO1)CN(C(=O)N1CC3(CC(N4CC(CC(F)(F)F)C4)C3)C1)C2 has what IC50?
7.62

Entry O=C1CCC2(CN(C(=O)N3CC4(CC(Cc5cnn(CC(F)(F)F)c5)C4)C3)C2)N1 has what IC50?
32.8

Entry O=C1NC2(CO1)CN(C(=O)N1CC3(C1)CN(c1ncc(C(F)(F)F)cn1)C3)C2 has what IC50?
414

Entry N#Cc1cc(CC2CC3(C2)CN(C(=O)N2CC4(CCC(=O)N4)C2)C3)ccc1C(F)(F)F has what IC50?
0.09

Entry O=C1NC2(CO1)CN(C(=O)N1CC3(CCN(Cc4ccc(C(F)(F)F)nc4)C3)C1)C2 has what IC50?
5.07

Entry CS(=O)(=O)c1cc(F)ccc1CC1CC2(C1)CN(C(=O)N1CC3(CCC(=O)N3)C1)C2 has what IC50?
5.52

Entry O=C1COCC2(CN(C(=O)N3CC4(CC(Cc5ncc(F)cc5F)C4)C3)C2)N1 has what IC50?
9.04

Entry N#Cc1cc(C(F)(F)F)ncc1C[C@H]1CCC2(C1)CN(C(=O)N1CC3(COC(=O)N3)C1)C2 has what IC50?
0.46

Entry O=C1NC2(CO1)CN(C(=O)N1CC3(C1)CN(S(=O)(=O)c1ccccc1OC(F)(F)F)C3)C2 has what IC50?
10.4
